Values compiled from patent US20200079833A1.

# target or test system: glucagon receptor (GCGR), primary cAMP assay (human, UniProt P47871 26-477)
# Sequence (P47871 26-477): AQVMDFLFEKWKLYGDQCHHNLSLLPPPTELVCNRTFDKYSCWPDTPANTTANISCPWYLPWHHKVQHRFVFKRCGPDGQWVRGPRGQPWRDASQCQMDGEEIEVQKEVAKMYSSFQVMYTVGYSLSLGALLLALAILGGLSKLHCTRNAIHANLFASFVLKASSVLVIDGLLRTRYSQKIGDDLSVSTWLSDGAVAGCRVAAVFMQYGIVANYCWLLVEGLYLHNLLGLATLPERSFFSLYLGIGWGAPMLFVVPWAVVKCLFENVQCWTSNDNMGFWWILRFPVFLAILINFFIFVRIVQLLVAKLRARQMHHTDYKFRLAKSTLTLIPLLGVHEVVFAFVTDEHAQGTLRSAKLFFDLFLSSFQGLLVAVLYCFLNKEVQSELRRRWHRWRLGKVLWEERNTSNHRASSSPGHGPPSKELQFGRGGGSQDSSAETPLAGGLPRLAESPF
# method summary: cell-based or functional assay
Starred links: 1 amine or outer side, 2 acyl side, 3 side chain; linkers in the order of their positions; H or OH if unused. Non-standard residues stand in square brackets, D forms with d. Groups on a side chain read outwards from the residue. Primed or numbered codes have the meaning given here. No end group written: not given here. *: point of attachment. γGlu = O=C(O)[C@H](CCC(=O)[*:2])N[*:1]; Stearoyl = CCCCCCCCCCCCCCCCCC(=O)*; Palmitoyl = CCCCCCCCCCCCCCCC(=O)*; αMeF = C[C@](N)(Cc1ccccc1)C(=O)O; Myristoyl = CCCCCCCCCCCCCC(=O)*; αMeK = C[C@](N)(CCCCN)C(=O)O; Lauroyl = CCCCCCCCCCCC(=O)*; αMeS = C[C@](N)(CO)C(=O)O; PEG2′ = not defined here; Aib = CC(C)(N)C(=O)O
Entries annotated with measured Primary assay EC50 (cAMP), n1
Answer format: numeric, nM implied, no suffix.

Some solved cases for reference:
* H[Aib]EGS[αMeF]TSDK([PEG2′-PEG2′-γGlu-Lauroyl])SSYLEGEAA[αMeK]EFIK([PEG2′-PEG2′-γGlu-Lauroyl])WVVEGG-NH2 [SEQ ID NO: 256] | 22.2
* H[Aib]EGS[αMeF]TSDV[αMeS]SK([PEG2′-PEG2′-γGlu-Myristoyl])LEGEAA[αMeK]E[αMeF]IAK([PEG2′-PEG2′-γGlu-Myristoyl])VVEGG-NH2 [SEQ ID NO: 408] | 21.5

Which Primary assay EC50 (cAMP), n1 reading was recorded for the binder H[Aib]EGS[αMeF]TSDV[αMeS]SK([PEG2′-PEG2′-γGlu-Stearoyl])LEGEAA[αMeK]E[αMeF]IAK([PEG2′-PEG2′-γGlu-Stearoyl])VVEGG-NH2 [SEQ ID NO: 410] ?
21.5

Now consider H[Aib]EGS[αMeF]TSDV[αMeS]SYK([PEG2′-PEG2′-γGlu-Palmitoyl])EGEAA[αMeK]EFIK([PEG2′-PEG2′-γGlu-Palmitoyl])WVVEGG-NH2 [SEQ ID NO: 271] and answer again.
21.4

Now consider H[Aib]EGS[αMeF]TSDVSK([PEG2′-PEG2′-γGlu-Lauroyl])YLEGEAA[αMeK]EFIAK([PEG2′-PEG2′-γGlu-Lauroyl])VVEGG-NH2 [SEQ ID NO: 252] and answer again.
22.7

Now consider H[Aib]EGS[αMeF]TSDVSK([PEG2′-PEG2′-γGlu-Lauroyl])FLEGEAA[αMeK]EFIK([PEG2′-PEG2′-γGlu-Lauroyl])FVVEGG-NH2 [SEQ ID NO: 248] and answer again.
22.4

Now consider H[Aib]EGS[αMeF]TSDK([PEG2′-PEG2′-γGlu-Lauroyl])SSYLEGEAA[αMeK]EFIAWK([PEG2′-PEG2′-γGlu-Lauroyl])VEGG-NH2 [SEQ ID NO: 258] and answer again.
22.3
